Biological target: HiBiT-tagged BCL-xL (Homo sapiens)
Construct: expressed in transfected cells; host or cells: NCI-H1650 (ATCC No. CRL-5883), engineered HiBiT cell line
Test: NCI-H1650 BCL-xL protein levels, Nano-Glo HiBiT Lytic Detection
Assay type: cell-based
Conditions: NCI-H1650 expressing HiBiT-tagged BCL-xL, overnight incubation, read-out: Bcl-xl HIBIT NCIH1650 DC50
Description: The ability of the BCL-xL degrader low molecular weight compounds to degrade BCL-xL protein was assessed using the Promega Nano-Glo® HiBiT Lytic Detection System. The NCI-H1650 (ATCC No. CRL-5883) was engineered to express HiBiT-tagged BCL-xL. The NCI-H1650 HiBiT cell line was cultured in media that is optimal for their growth at 5% CO2, 37° C. in a tissue culture incubator. […] Cell viability and cell density were determined using a cell counter (Vi-Cell XR Cell Viability Analyzer, Beckman Coulter). […]
measuredMetric: DC50 (nM)
Use nM as the unit, but write only the number.

Cc1ncsc1-c1ccc([C@H](C)NC(=O)[C@@H]2C[C@@H](O)CN2C(=O)[C@@H](NC(=O)CCCCCCCCNC(=O)c2nc(N3CCCc4c3nnc(Nc3nc5ccccc5s3)c4C)ccc2-c2cnn(C[C@]34C[C@]5(C)C[C@](C)(C3)C[C@@](OCCN3CCCC3)(C5)C4)c2C)C(C)(C)C)cc1 [Example 124]; 1
Cc1cc(N(CCCCN(C)C(=O)CCCCCCCCCCC(=O)N[C@H](C(=O)N2C[C@H](O)C[C@H]2C(=O)N[C@@H](C)c2ccc(-c3scnc3C)cc2)C(C)(C)C)c2ccc(-c3cnn(CC45CC6(C)CC(C)(C4)CC(OCCN(C)C)(C6)C5)c3C)c(C(=O)O)n2)nnc1Nc1nc2ccccc2s1 [Example 112]; 0.5
Cc1ncsc1-c1ccc([C@H](C)NC(=O)[C@@H]2C[C@@H](O)CN2C(=O)[C@@H](NC(=O)CCCCCCCCCCCCN(C)CCOC23CC4(C)CC(C)(CC(Cn5ncc(-c6ccc(N7CCCc8c7nnc(Nc7nc9ccccc9s7)c8C)nc6C(=O)O)c5C)(C4)C2)C3)C(C)(C)C)cc1 [Example 136]; 1
Cc1cc(N(CCCCN(C)C(=O)CCCCCCCCCCCCC(=O)N[C@H](C(=O)N2C[C@H](O)C[C@H]2C(=O)N[C@@H](C)c2ccc(-c3scnc3C)cc2)C(C)(C)C)c2ccc(-c3cnn(CC45CC6(C)CC(C)(C4)CC(OCCN(C)C)(C6)C5)c3C)c(C(=O)O)n2)nnc1Nc1nc2ccccc2s1 [Example 116]; 1
Cc1ncsc1-c1ccc([C@H](C)NC(=O)[C@@H]2C[C@@H](O)CN2C(=O)[C@@H](NC(=O)CCCCCCCCCCCCCN(C)CCOC23CC4(C)CC(C)(CC(Cn5ncc(-c6ccc(N7CCCc8c7nnc(Nc7nc9ccccc9s7)c8C)nc6C(=O)O)c5C)(C4)C2)C3)C(C)(C)C)cc1 [Example 4]; 0.4
Cc1ncsc1-c1ccc([C@H](C)NC(=O)[C@@H]2C[C@@H](O)CN2C(=O)[C@@H](NC(=O)COC2CCN(C(=O)c3nc(N4CCCc5c4nnc(Nc4nc6ccccc6s4)c5C)ccc3-c3cnn(CC45CC6(C)CC(C)(C4)CC(OCCN4CCCC4)(C6)C5)c3C)CC2)C(C)(C)C)cc1 [Example 166]; 1
Cc1ncsc1-c1ccc([C@H](C)NC(=O)[C@@H]2C[C@@H](O)CN2C(=O)[C@@H](NC(=O)C[C@H]2CC[C@H](NC(=O)c3nc(N4CCCc5c4nnc(Nc4nc6ccccc6s4)c5C)ccc3-c3cnn(CC45CC6(C)CC(C)(C4)CC(OCCN4CCCC4)(C6)C5)c3C)CC2)C(C)(C)C)cc1 [Example 164]; 2
Cc1ncsc1-c1ccc([C@H](C)NC(=O)[C@@H]2C[C@@H](O)CN2C(=O)[C@@H](NC(=O)CCOCCOCCOCCN(C)C(=O)c2nc(N3CCCc4c3nnc(Nc3nc5ccccc5s3)c4C)ccc2-c2cnn(CC34CC5(C)CC(C)(C3)CC(OCCN3CCCC3)(C5)C4)c2C)C(C)(C)C)cc1 [Example 160]; 2

Value lookup for DC50; key = Cc1ncsc1-c1ccc([C@H](C)NC(=O)[C@@H]2C[C@@H](O)CN2C(=O)[C@@H](NC(=O)CCCCCCCCCCCCCN(C)CCOC23CC4(C)CC(C)(CC(Cn5ncc(-c6ccc(N7CCCc8c7nnc(Nc7nc9ccccc9s7)c8C)nc6C(=O)N(C)C)c5C)(C4)C2)C3)C(C)(C)C)cc1 [Example 148] 1

Same for Cc1ncsc1-c1ccc([C@H](C)NC(=O)[C@@H]2C[C@@H](O)CN2C(=O)C(NC(=O)CCCCCCCCN(C)C(=O)c2nc(N3CCCc4c3nnc(Nc3nc5ccccc5s3)c4C)ccc2-c2cnn(CC34CC5(C)CC(C)(C3)CC(OCCN3CCCC3)(C5)C4)c2C)C(C)(C)C)cc1 (some centres unmarked) [Example 161] 0.4

Same for Cc1ncsc1-c1ccc([C@H](C)NC(=O)[C@@H]2C[C@@H](O)CN2C(=O)[C@@H](NC(=O)COCCCCCCCCCCCCCN(C)CCOC23CC4(C)CC(C)(CC(Cn5ncc(-c6ccc(N7CCCc8c7nnc(Nc7nc9ccccc9s7)c8C)nc6C(=O)O)c5C)(C4)C2)C3)C(C)(C)C)cc1 [Example 111] 0.5

====

target: Bcl-xL (Homo sapiens, UniProt Q07817); construct: Measured levels of Bcl-xL protein of HCT116 cells treated with the tested compounds; host or cells: HCT116; experiment: HCT116 Bcl-xL degradation, capillary-based immunoassay (WES); format: cell-based; settings: HCT116, 24 h, 9-point serial dilution
Sequence (Q07817 whole entry): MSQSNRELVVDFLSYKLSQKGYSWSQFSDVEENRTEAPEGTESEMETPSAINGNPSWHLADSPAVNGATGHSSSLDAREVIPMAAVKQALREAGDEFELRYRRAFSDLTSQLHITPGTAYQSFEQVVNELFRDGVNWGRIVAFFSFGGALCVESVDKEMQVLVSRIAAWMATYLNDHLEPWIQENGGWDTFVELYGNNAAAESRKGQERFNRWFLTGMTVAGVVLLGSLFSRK
measuredMetric: DC50 (nM)

Some compounds with known DC50 results, for comparison:
Cc1ncsc1-c1ccc([C@H](C)NC(=O)[C@@H]2C[C@@H](O)CN2C(=O)[C@@H](NC(=O)CCCCCCCCCN2CCN(CC#Cc3ccc(OCCCc4sc(N5CCCc6c5nnc(Nc5nc7ccccc7s5)c6C)nc4C(=O)O)c(F)c3)CC2)C(C)(C)C)cc1 [Example 134]; 0.564
Cc1ncsc1-c1ccc([C@H](C)NC(=O)[C@@H]2C[C@@H](O)CN2C(=O)[C@@H](NC(=O)CCCCCCCCCCCCCN(C)CCOC23CC4(C)CC(C)(CC(Cn5ncc(-c6ccc(N7CCCc8c7nnc(Nc7nc9ccccc9s7)c8C)nc6C(N)=O)c5C)(C4)C2)C3)C(C)(C)C)cc1 [Example 154]; 10.3

I = Cc1cc(N(CCCCCn2cc(COCCOCCNc3cccc4c3C(=O)N(C3CCC(=O)NC3=O)C4=O)nn2)c2ccc(-c3cnn(CC45CC6(C)CC(C)(C4)CC(OCCN(C)C)(C6)C5)c3C)c(C(=O)O)n2)nnc1Nc1nc2ccccc2s1 (stereo not shown) [Example 61]
II = Cc1c(Nc2nc3ccccc3s2)nnc2c1CCCN2c1ccc(-c2cnn(CC34CC5(C)CC(C)(C3)CC(OCCN(C)CCCCCOc3ccc6c(c3)C(=O)N(C3CCC(=O)NC3=O)C6=O)(C5)C4)c2C)c(C(=O)O)n1 (stereo not shown) [Example 107]
I'm curious, which of these has a smaller DC50 number: I or II ? Give the label of your selection. II

====

target: Bcl-xL (Homo sapiens); construct: Measured levels of Bcl-xL protein of HCT116 cells treated with the tested compounds; host or cells: HCT116; assay: HCT116 Bcl-xL degradation, capillary-based immunoassay (WES); type: cell-based; conditions: HCT-116; HCT116, 100 nM, 24 h; % of untreated cells
measuredMetric: remaining activity at 0.1 µM (%)

a = Cc1cc(N(CCCCCn2cc(COCCOCCOCCOCCNc3cccc4c3C(=O)N(C3CCC(=O)NC3=O)C4=O)nn2)c2ccc(-c3cnn(CC45CC6(C)CC(C)(C4)CC(OCCN(C)C)(C6)C5)c3C)c(C(=O)O)n2)nnc1Nc1nc2ccccc2s1 (centres unmarked)
b = Cc1c(Nc2nc3ccccc3s2)nnc2c1CCCN2c1ccc(-c2cnn(CC34CC5(C)CC(C)(C3)CC(OCCN(C)CCOCCOCCOCCOCCNc3cccc6c3C(=O)N(C3CCC(=O)NC3=O)C6=O)(C5)C4)c2C)c(C(=O)O)n1 (centres unmarked)
I'm curious, which of these has a smaller remaining activity at 0.1 µM number: a or b ? Give the label of your selection. a
(a: 40%, b: 103%)

====

molecular target: HiBiT-tagged BCL-xL (Homo sapiens, UniProt Q07817); construct: expressed in transfected cells; host or cells: NCI-H1650 (ATCC No. CRL-5883), engineered HiBiT cell line; experiment: NCI-H1650 BCL-xL protein levels, Nano-Glo HiBiT Lytic Detection; format: cell-based; conditions: NCI-H1650 expressing HiBiT-tagged BCL-xL, overnight incubation, read-out: Bcl-xl HIBIT NCIH1650 DC50
measuredMetric: DC50 (nM)

Cc1ncsc1-c1ccc([C@H](C)NC(=O)[C@@H]2C[C@@H](O)CN2C(=O)[C@@H](NC(=O)CCCCCCCCCNC(=O)c2nc(N3CCCc4c3nnc(Nc3nc5ccccc5s3)c4C)ccc2-c2cnn(CC34CC5(C)CC(C)(C3)CC(OCCN3CCCC3)(C5)C4)c2C)C(C)(C)C)cc1; 1
CNC(=O)c1nc(N2CCCc3c2nnc(Nc2nc4ccccc4s2)c3C)ccc1-c1cnn(CC23CC4(C)CC(C)(C2)CC(OCCN(C)CCCCCCCCCCCCCC(=O)N[C@H](C(=O)N2C[C@H](O)C[C@H]2C(=O)N[C@@H](C)c2ccc(-c5scnc5C)cc2)C(C)(C)C)(C4)C3)c1C; 228

a = Cc1ncsc1-c1ccc([C@H](C)NC(=O)[C@@H]2C[C@@H](O)CN2C(=O)[C@@H](NC(=O)CCCCCCCCCCC(=O)N2CCN(CCOC34CC5(C)CC(C)(CC(Cn6ncc(-c7ccc(N8CCCc9c8nnc(Nc8nc%10ccccc%10s8)c9C)nc7C(=O)O)c6C)(C5)C3)C4)CC2)C(C)(C)C)cc1
b = Cc1ncsc1-c1ccc([C@H](C)NC(=O)[C@@H]2C[C@@H](O)CN2C(=O)[C@@H](NC(=O)CCCCCCCCCCCN(C)CCOC23CC4(C)CC(C)(CC(Cn5ncc(-c6ccc(N7CCCc8c7nnc(Nc7nc9ccccc9s7)c8C)nc6C(=O)O)c5C)(C4)C2)C3)C(C)(C)C)cc1
I'm curious, which of these has a smaller DC50 number: a or b ? Give the label of your selection. b
(b: 1 nM, a: 9 nM)

I = Cc1ncsc1-c1ccc([C@H](C)NC(=O)[C@@H]2C[C@@H](O)CN2C(=O)[C@@H](NC(=O)CCCCCCCCCCN(C)CCOC23CC4(C)CC(C)(CC(Cn5ncc(-c6ccc(N7CCCc8c7nnc(Nc7nc9ccccc9s7)c8C)nc6C(=O)O)c5C)(C4)C2)C3)C(C)(C)C)cc1
II = Cc1ncsc1-c1ccc(CNC(=O)[C@@H]2C[C@@H](O)CN2C(=O)[C@@H](NC(=O)C2(F)CC2)C(C)(C)C)c(OCCCCCCCCCCCCN(C)CCOC23CC4(C)CC(C)(CC(Cn5ncc(-c6ccc(N7CCCc8c7nnc(Nc7nc9ccccc9s7)c8C)nc6C(=O)O)c5C)(C4)C2)C3)c1
I'm curious, which of these has a smaller DC50 number: I or II ? Give the label of your selection. I
(I: 1 nM, II: 3 nM)
